Data provenance: patent US12049474B2

Please respond with reported IC50 for every item in the list.
Target: CYP2D6 (Homo sapiens (Human), UniProt P10635)
Sequence (P10635 whole entry): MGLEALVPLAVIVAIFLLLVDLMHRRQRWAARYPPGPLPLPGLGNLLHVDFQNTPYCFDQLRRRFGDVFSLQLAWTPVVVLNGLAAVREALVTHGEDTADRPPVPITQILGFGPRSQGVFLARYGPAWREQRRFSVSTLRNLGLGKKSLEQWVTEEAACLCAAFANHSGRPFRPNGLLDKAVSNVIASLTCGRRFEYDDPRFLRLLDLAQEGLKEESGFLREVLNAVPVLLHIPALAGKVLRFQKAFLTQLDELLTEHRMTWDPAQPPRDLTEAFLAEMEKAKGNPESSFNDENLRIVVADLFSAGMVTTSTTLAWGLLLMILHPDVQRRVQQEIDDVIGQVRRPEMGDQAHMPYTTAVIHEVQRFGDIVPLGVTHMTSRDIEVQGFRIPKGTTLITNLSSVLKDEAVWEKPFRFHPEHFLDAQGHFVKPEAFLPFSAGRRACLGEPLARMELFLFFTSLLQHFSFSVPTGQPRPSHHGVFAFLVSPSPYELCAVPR
Test: biochemical
Type: biochemical
Conditions: human recombinant CYP2D6, AMMC substrate; read-out: CYP450 IC50 2D6

The compound identified as C[C@H](Cn1cnc2c(N)ncnc21)OCP(=O)(O)OCCCSCCCCCCCCCCCOc1ccccc1.N registered its IC50 at > 20 µM

The compound identified as C[C@H](Cn1cnc2c(N)ncnc21)OCP(=O)(O)OCCCCCCCCCCCCCCCCCCCC(F)(F)F.N registered its IC50 at > 20 µM

The compound identified as C[C@H](Cn1cnc2c(N)ncnc21)OCP(=O)(O)O [TFV, tenofovir, reference compound] registered its IC50 at > 50 µM

The compound identified as C[C@H](Cn1cnc2c(N)ncnc21)OCP(=O)(O)OCCCCCCCCCCCCCCCCCC#CC(F)(F)F.N registered its IC50 at > 20 µM
